Test: Foam test of 0.1 wt % solutions, procedure based upon ASTM D 1173-53
Assay type: physicochemical
Conditions: 0.1 wt % solution
readout_name: time to zero foam (s)

CC(C)CC(C)OC(=O)CC(O)C(=O)OC(C)CC(C)C (racemic) [Example 9, Di(4-methyl-2-pentyl)-DL-malate] :: 0
CCC(C)OC(=O)CC(O)C(=O)OC(C)CC (racemic) [Example 4, Di-sec-butyl-DL-malate] :: 60
CC(C)COC(=O)CC(O)C(=O)OCC(C)C (racemic) [Example 3, Diisobutyl-DL-malate] :: 0.2

(1) CCC(C)COC(=O)CC(O)C(=O)OCC(C)CC (racemic) [Example 7, Di(2-methylbutyl)-DL-malate]
(2) O=C(CC(O)C(=O)OCc1ccccc1)OCc1ccccc1 (racemic) [Example 10, Dibenzyl-DL-malate]
Q) Compare 1 and 2 by numeric time to zero foam and name the larger one. Your choice should be expressed through its label.
A) 1

====

Assay: Foam test of 0.1 wt % solutions, procedure based upon ASTM D 1173-53
Assay type: physicochemical
Conditions: 0.1 wt % solution
readout_name: initial foam (cm)

CCCCCOC(=O)CC(O)C(=O)OCCCCC (racemic) [Example 5, Dipentyl-DL-malate] :: 0.5

(P) CCCCCCOC(=O)CC(O)C(=O)OCCCCCC (racemic) [Example 8, Dihexyl-DL-malate]
(Q) CCCCOC(=O)CC(O)C(=O)OCCCC (racemic) [Example 2, Dibutyl-DL-malate]
(R) CC(C)CCOC(=O)CC(O)C(=O)OCCC(C)C (racemic) [Example 6, Diisoamyl-DL-malate]
(S) O=C(CC(O)C(=O)OCc1ccccc1)OCc1ccccc1 (racemic) [Example 10, Dibenzyl-DL-malate]
(T) CC(C)OC(=O)C[C@H](O)C(=O)OC(C)C [Example 1, Diisopropyl-(S)-(−)-malate]
Q) With regard to initial foam, arrange the entries in ascending order, please. Reply with the item labels sorted in the order that was asked for.
A) S, R, P, Q, T

====

Assay: Dynamic surface tension of aqueous solutions, maximum bubble pressure method
Type: physicochemical
Details: 0.1 wt % solution, 25° C., 1 b/s
readout_name: γ(0.1 wt % solution) (1 b/s) (dyne/cm)

CCCCCOC(=O)CC(O)C(=O)OCCCCC (racemic) [Example 5, Dipentyl-DL-malate] :: 38.2

(I) CC(C)OC(=O)C[C@H](O)C(=O)OC(C)C [Example 1, Diisopropyl-(S)-(−)-malate]
(II) CCC(C)COC(=O)CC(O)C(=O)OCC(C)CC (racemic) [Example 7, Di(2-methylbutyl)-DL-malate]
Q) Lowest γ(0.1 wt % solution) (1 b/s)? choose I or II API: response body contains the label of the selected item.
A) II

====

Test: Solubility limit in water from surface tension/ln concentration curve
Assay type: physicochemical
Conditions: distilled water, 25° C.
readout_name: solubility limit (Weight %)

Answered examples (6):
CCCCCOC(=O)CC(O)C(=O)OCCCCC (racemic) [Example 5, Dipentyl-DL-malate] :: 0.03
CC(C)COC(=O)CC(O)C(=O)OCC(C)C (racemic) [Example 3, Diisobutyl-DL-malate] :: 0.4
CC(C)CCOC(=O)CC(O)C(=O)OCCC(C)C (racemic) [Example 6, Diisoamyl-DL-malate] :: 0.04
CC(C)CC(C)OC(=O)CC(O)C(=O)OC(C)CC(C)C (racemic) [Example 9, Di(4-methyl-2-pentyl)-DL-malate] :: 0.02
O=C(CC(O)C(=O)OCc1ccccc1)OCc1ccccc1 (racemic) [Example 10, Dibenzyl-DL-malate] :: 0.08
CCCCCCOC(=O)CC(O)C(=O)OCCCCCC (racemic) [Example 8, Dihexyl-DL-malate] :: 0.005

(P) CCC(C)COC(=O)CC(O)C(=O)OCC(C)CC (racemic) [Example 7, Di(2-methylbutyl)-DL-malate]
(Q) CCC(C)OC(=O)CC(O)C(=O)OC(C)CC (racemic) [Example 4, Di-sec-butyl-DL-malate]
Q) Which entry has a larger number for solubility limit, P or Q ? Answer with the label corresponding to your selection.
A) Q

(A) CCCCOC(=O)CC(O)C(=O)OCCCC (racemic) [Example 2, Dibutyl-DL-malate]
(B) CC(C)OC(=O)C[C@H](O)C(=O)OC(C)C [Example 1, Diisopropyl-(S)-(−)-malate]
Q) Sort A and B by solubility limit descending and give the first. Identify your pick by its label.
A) B
(B: 5 Weight %, A: 0.3 Weight %)
